- Tested on: K562 (human chronic myelogenous leukemia) cells
- Experiment Description: Cell Titer Glo 2.0 cell viability assay
- Type: cell-based
- Condition Context: Homo sapiens, K562, 72 h, K562 cells, 72 hours, Cell Titer Glo 2.0; read-out: K562 GI50
Would you kindly list GI50 for each of these molecules?

Below are worked cases with known answers.
Cc1cn2cc(-c3cc(F)c4c(=O)n([C@H]5CCN[C@H](C)C5)cnc4c3)cc(F)c2n1 [Compound 346]
100 to 1000 nM
Cc1c(O)c(-c2ncc3c(=O)n([C@H]4CCN[C@@H](C)C4)ccc3n2)cc2cn(C)nc12 [Compound 1441]
< 100 nM
Cc1cn2cc(-c3cc(F)c4c(=O)n(C5CCNCC5)cnc4c3)cc(F)c2n1 [Compound 230]
100 to 1000 nM
Cc1nc2c(F)cc(-c3ccc4c(c3)CCN(C3CCNCC3)C4=O)cc2s1 [Compound 226]
1000 to 10000 nM
CCN1CCC(n2ccc3cc(-c4cc(C)c5nn(C)cc5c4)ncc3c2=O)CC1 [Compound 1207]
1000 to 10000 nM
Cc1cn2nc(-c3cnc4c(=O)n(C5CCNCC5)ncc4c3)cc(C)c2n1 [Compound 1411]
1000 to 10000 nM
Cc1cn2nc(-c3ccc4c(=O)n([C@@H]5CCNC6(CC6)C5)cnc4c3)cc(C)c2n1 [Compound 444]
100 to 1000 nM
Cc1nc2c(F)cc(-c3ccc4c(=O)n(C5CCN(C)CC5)cnc4c3)cc2o1 [Compound 300]
1000 to 10000 nM
Cc1cn2nc(-c3ccc4c(=O)n(C5CCNCC5)ccc4c3)cc(OCc3ccccc3)c2n1 [Compound 526]
100 to 1000 nM
Cc1c(O)c(-c2ncc3c(=O)n([C@@H]4CC[C@@H](N)C4)ccc3n2)cc2cn(C)nc12 [Compound 1476]
100 to 1000 nM

State recorded GI50 for all listed molecules.
1. Cc1c(O)c(-c2ccc3c(=O)n(C45CCC(NC(C)C)(CC4)C5)ccc3n2)cc2cn(C)nc12 [Compound 1526]
2. Cc1cn2nc(-c3ccc4c(=O)n(C5CCNCC5)ncc4n3)cc(C)c2n1 [Compound 1247]
3. Cc1cn2cc(-c3ccc4c(=O)n(C5CCNCC5)ccc4n3)cc(F)c2n1 [Compound 1230]
4. Cc1cn2nc(-c3ccc4c(=O)n([C@H]5CCN[C@@H](C)C5)ccc4n3)cc(C)c2n1 [Compound 1495]
5. Cn1cc2cc(-c3ncc4c(=O)n([C@@H]5CCNC5)ccc4n3)c(O)c(F)c2n1 [Compound 1466]
6. Cc1cn2cc(-c3ccc4c(=O)n(C5CCNC5)cc(C)c4c3)cc(F)c2n1 (centres unmarked) [Compound 441]
7. Cc1c(O)c(-c2nc(C)c3c(=O)n([C@@H]4CCNC5(CC5)C4)ccc3n2)cc2cn(C)nc12 [Compound 1515]

*A*
1: 100 to 1000 nM; 2: 100 to 1000 nM; 3: < 100 nM; 4: 100 to 1000 nM; 5: 100 to 1000 nM; 6: 1000 to 10000 nM; 7: 100 to 1000 nM

// each listed molecule needs a value for GI50
1. Cc1cc(-c2cc3ccn(C4CCN(C5CC5)CC4)c(=O)c3cn2)cc2cn(C)nc12 [Compound 1208]
2. Cc1c(O)c(-c2ncc3c(=O)n(C4CCN(C)CC4)ccc3n2)cc2cn(C)nc12 [Compound 1304]
3. Cc1cn2nc(-c3cc(O)c4c(=O)n([C@H]5CCNC6(CC6)C5)ncc4c3)cc(C)c2n1 [Compound 469]

*A*
1: > 10000 nM; 2: 100 to 1000 nM; 3: < 100 nM
